Listed compounds paired with reported activity coefficient
assay: activity coefficient (dimensionless); of the first substance listed, at infinite dilution; xn = mol fraction of the nth substance listed; conditions: 343.15 K; Liquid; Chromatography; x1 = 0
Please respond with just the number, no unit label.

Recorded results for 2 compounds are shown here.
[[record]]
compound = "c1ccccc1 [benzene] + CCCOC[n+]1ccc(N(C)C)cc1.O=S(=O)([N-]S(=O)(=O)C(F)(F)F)C(F)(F)F"
assay_endpoint = "activity coefficient"
experimental_result = 0.78

[[record]]
compound = "CCC(C)=O [butanone] + CCCOC[n+]1ccn(Cc2ccccc2)c1.N#C[N-]C#N"
assay_endpoint = "activity coefficient"
experimental_result = 0.81


Problem: Give reported activity coefficient value for ClC(Cl)Cl [trichloromethane] + CCCOC[n+]1ccn(Cc2ccccc2)c1.N#C[N-]C#N
Result: 0.69

Problem: Give reported activity coefficient value for CCCO [propan-1-ol] + Cn1cc[n+](COCCCOC[n+]2ccn(C)c2)c1.O=S(=O)([N-]S(=O)(=O)C(F)(F)F)C(F)(F)F.O=S(=O)([N-]S(=O)(=O)C(F)(F)F)C(F)(F)F
Result: 1.19

* * *

test: activity coefficient (dimensionless); of the first substance listed, at infinite dilution; xn = mol fraction of the nth substance listed; conditions: 323.15 K; Liquid; Chromatography; x1 = 0
Listed compounds paired with reported activity coefficient

Recorded results for 5 compounds are shown here.
[[record]]
compound = "ClC(Cl)Cl [trichloromethane] + CCCOC[n+]1ccn(Cc2ccccc2)c1.F[B-](F)(F)F"
experimental_result = 1.16

[[record]]
compound = "CCCCCCCCC [nonane] + Cn1cc[n+](COCCCOC[n+]2ccn(C)c2)c1.O=S(=O)([N-]S(=O)(=O)C(F)(F)F)C(F)(F)F.O=S(=O)([N-]S(=O)(=O)C(F)(F)F)C(F)(F)F"
experimental_result = 105

[[record]]
compound = "C#CCCCC [1-hexyne] + CCCCCCCCn1cc[n+](COCCC)c1C.N#C[N-]C#N"
experimental_result = 1.73

[[record]]
compound = "CCC(=O)CC [pentan-3-one] + CCCCCCCCn1cc[n+](COCCC)c1C.O=S(=O)([N-]S(=O)(=O)C(F)(F)F)C(F)(F)F"
experimental_result = 0.45

[[record]]
compound = "C1COCCO1 [1,4-dioxane] + CCCCCCCCn1cc[n+](COCCCOC[n+]2ccn(CCCCCCCC)c2C)c1C.O=S(=O)([N-]S(=O)(=O)C(F)(F)F)C(F)(F)F.O=S(=O)([N-]S(=O)(=O)C(F)(F)F)C(F)(F)F"
experimental_result = 0.28


Problem: Give reported activity coefficient value for C#CCCCCC [1-heptyne] + N#C[N-]C#N.N#C[N-]C#N.c1ccc(Cn2cc[n+](COCCCOC[n+]3ccn(Cc4ccccc4)c3)c2)cc1
Result: 19.1

Problem: Give reported activity coefficient value for CCC(C)=O [butanone] + CCCCCCCCn1cc[n+](COCCCOC[n+]2ccn(CCCCCCCC)c2C)c1C.N#C[N-]C#N.N#C[N-]C#N
Result: 0.56

Problem: Give reported activity coefficient value for CC(C)OC(C)C [diisopropyl ether] + Cn1cc[n+](COCCCOC[n+]2ccn(C)c2)c1.O=S(=O)([N-]S(=O)(=O)C(F)(F)F)C(F)(F)F.O=S(=O)([N-]S(=O)(=O)C(F)(F)F)C(F)(F)F
Result: 6.31

Problem: Give reported activity coefficient value for CCCCCCCCCC [decane] + CCCCCCCCn1cc[n+](COCCC)c1C.O=S(=O)([N-]S(=O)(=O)C(F)(F)F)C(F)(F)F
Result: 8.9

Problem: Give reported activity coefficient value for Cc1cccc(C)c1 [1,3-dimethylbenzene] + CCCOC[n+]1ccn(Cc2ccccc2)c1.N#C[N-]C#N
Result: 3.62

Problem: Give reported activity coefficient value for CCCCCCCCC [nonane] + CN(C)c1cc[n+](COCCCOC[n+]2ccc(N(C)C)cc2)cc1.O=S(=O)([N-]S(=O)(=O)C(F)(F)F)C(F)(F)F.O=S(=O)([N-]S(=O)(=O)C(F)(F)F)C(F)(F)F
Result: 60.7

Problem: Give reported activity coefficient value for CCC(C)=O [butanone] + CCCOC[n+]1ccn(Cc2ccccc2)c1.N#C[N-]C#N
Result: 0.9
